Tested on: PLC/PRF/5 KSR2 OE (PLC cells overexpressing KSR2)
Assay Text: Cell IC50 assay (CCK8 cell viability), PLC/PRF/5 KSR2 OE
Assay type: cell-based
Experimental Context: Homo sapiens, PLC-PRF-5; hepatoma cells, 72 h incubation, CCK8; read-out: IC50 value of cell viability, PLC/PRF/5 KSR2 OE (PLC cells overexpressing KSR2)
Reported pIC50 is given for each of the following compounds.
pIC50 is a log-scale quantity: -log10 of the concentration expressed in molar.

[[record]]
record_smiles = "CCN1CCN(C2CCN(CCCNC(=O)c3nn(C)c4c3CSc3ccccc3-4)CC2)CC1"
reported_value = 5.70


Task item: Query (compound): Cn1nc(C(=O)NCCCN2CCC(N3CCN(Cc4ccccc4)CC3)CC2)c2c1-c1ccccc1SC2 ; field requested: pIC50
Reply: 5.70

Task item: Query (compound): CN1CCN(C2CN(CCCNC(=O)c3n[nH]c4c3COc3cc(Cl)ccc3-4)C2)CC1 ; field requested: pIC50
Reply: 5.05

Task item: Query (compound): CCN1CCN(C2CCN(CCCNC(=O)c3n[nH]c4c3COc3cc(C(F)(F)F)c(C#N)cc3-4)CC2)CC1 ; field requested: pIC50
Reply: 5.40
